Parameter IC50: see the listing below.
molecular target: human TRPM8 (Homo sapiens); experiment: Menthol-induced Ca2+ influx in HEK293 cells stably expressing human TRPM8; details: 30 microM menthol-induced Ca2+ influx, read-out: IC50 against TRPM8

Example entries and their recorded answers appear below.
{"molecule": "O=C(CN1C(=O)NC2(CCC(F)(F)CC2)C1=O)c1ccc(-c2nccc3[nH]ncc23)cc1", "IC50": "< 100 nM"}
{"molecule": "Cn1c(C(=O)CN2C(=O)NC3(CCC(F)(F)CC3)C2=O)ccc1-c1ccccc1CO", "IC50": "< 500 nM"}
{"molecule": "Cc1ncsc1-c1ccc(C(=O)CN2C(=O)NC3(CCC(F)(F)CC3)C2=O)cc1", "IC50": "< 100 nM"}
{"molecule": "Cc1cccc(-n2c(C)nc(C(=O)CN3C(=O)NC4(CCC(F)(F)CC4)C3=O)c2C)c1", "IC50": "< 100 nM"}
{"molecule": "O=C(CN1C(=O)NC2(CCC(F)(F)CC2)C1=O)c1ccc(-n2c(=O)oc3ccccc32)nc1", "IC50": "< 10 nM"}

Need IC50, item N#Cc1ncccc1-c1ccc(C(=O)CN2C(=O)NC3(CCC(F)(F)CC3)C2=O)cc1F
< 100 nM

Request: O=C(CN1C(=O)NC2(CCC(F)(F)CC2)C1=O)c1ccc(Oc2ncccn2)cc1 [Example 5-21]
< 500 nM

Field entry: O=C(CN1C(=O)NC2(CCC(F)(F)CC2)C1=O)c1ccc(Oc2cccnc2)cc1F
< 500 nM

What do we get for Cc1nc(C(=O)CN2C(=O)NC3(CCC(F)(F)CC3)C2=O)sc1-c1cc(F)cc(F)c1 ?
< 100 nM

Next entry: Cc1nc2ccccc2n1-c1ccc(C(=O)CN2C(=O)NC3(CCC(F)(F)CC3)C2=O)cc1
< 100 nM

Now the same for Cc1ccnc(Oc2ccc(C(=O)CN3C(=O)NC4(CCC(F)(F)CC4)C3=O)cc2)c1
< 500 nM

Entry O=C(CN1C(=O)NC2(CCC(F)(F)CC2)C1=O)c1ccc(-c2ncn3ccccc23)cc1 please
< 500 nM

Same question for Cc1ccncc1-c1sc(C(=O)CN2C(=O)NC3(CCC(F)(F)CC3)C2=O)nc1C please.
< 10 nM

Now consider O=C(CN1C(=O)NC2(CCC(F)(F)CC2)C1=O)c1ccc(-c2cccc3ncncc23)cc1 and answer again.
< 100 nM

Could you do the same for COc1cc(C(=O)CN2C(=O)NC3(CCC(F)(F)CC3)C2=O)ccc1-c1cccc(F)c1 , please?
< 500 nM

Consider next the molecule Cc1ncccc1-c1c(C)c(C(=O)CN2C(=O)NC3(CCC(F)(F)CC3)C2=O)cn1C in the same way.
< 500 nM

Next molecule: Cc1nc2ccccc2n1-c1ccc(C(=O)CN2CC3(CCC(F)(F)CC3)OC2=O)cc1
< 100 nM

Same thing, different molecule: Cc1nc(C(=O)CN2C(=O)NC3(CCC(F)(F)CC3)C2=O)sc1-c1cccc2ccncc12
< 100 nM

Likewise for Cc1cccc(-n2c(C)cc(C(=O)CN3C(=O)NC4(CCC(F)(F)CC4)C3=O)c2C)c1 ?
< 100 nM

---

target: human TRPM8 (Homo sapiens, UniProt Q7Z2W7); assay: Menthol-induced Ca2+ influx in HEK293 cells stably expressing human TRPM8; conditions: 30 microM menthol-induced Ca2+ influx, read-out: IC50 against TRPM8
Sequence (Q7Z2W7 whole entry): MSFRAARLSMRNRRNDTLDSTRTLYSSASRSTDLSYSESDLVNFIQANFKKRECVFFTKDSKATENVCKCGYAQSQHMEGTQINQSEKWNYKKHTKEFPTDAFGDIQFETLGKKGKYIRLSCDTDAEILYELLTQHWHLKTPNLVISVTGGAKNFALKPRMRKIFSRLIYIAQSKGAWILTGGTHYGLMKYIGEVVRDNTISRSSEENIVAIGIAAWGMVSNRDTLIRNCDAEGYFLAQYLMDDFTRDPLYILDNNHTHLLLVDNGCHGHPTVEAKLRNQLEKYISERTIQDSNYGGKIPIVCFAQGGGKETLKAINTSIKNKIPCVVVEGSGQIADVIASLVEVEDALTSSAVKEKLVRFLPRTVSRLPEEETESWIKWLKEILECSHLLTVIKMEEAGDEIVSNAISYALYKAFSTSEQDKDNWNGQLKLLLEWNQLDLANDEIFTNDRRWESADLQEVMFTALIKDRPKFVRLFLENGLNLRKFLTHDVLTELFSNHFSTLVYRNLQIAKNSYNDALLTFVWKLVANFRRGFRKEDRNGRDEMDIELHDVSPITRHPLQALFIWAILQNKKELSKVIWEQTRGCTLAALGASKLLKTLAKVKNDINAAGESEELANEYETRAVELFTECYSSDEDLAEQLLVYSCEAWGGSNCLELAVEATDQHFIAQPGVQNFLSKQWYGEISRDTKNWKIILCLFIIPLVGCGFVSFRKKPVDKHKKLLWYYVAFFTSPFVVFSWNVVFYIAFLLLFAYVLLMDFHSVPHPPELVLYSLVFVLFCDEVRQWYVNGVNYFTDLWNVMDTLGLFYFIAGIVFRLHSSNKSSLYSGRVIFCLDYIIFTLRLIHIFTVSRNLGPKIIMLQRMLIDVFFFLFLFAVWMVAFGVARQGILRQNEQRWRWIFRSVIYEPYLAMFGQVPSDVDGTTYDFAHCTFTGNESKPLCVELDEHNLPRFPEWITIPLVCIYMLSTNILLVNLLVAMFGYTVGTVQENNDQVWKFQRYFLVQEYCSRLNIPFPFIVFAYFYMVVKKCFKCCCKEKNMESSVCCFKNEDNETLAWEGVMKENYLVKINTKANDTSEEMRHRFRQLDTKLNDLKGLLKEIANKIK
measured quantity: IC50

These recorded examples may help you get a feel for the data.
{"smiles string": "Cc1cc(C(=O)CN2C(=O)NC3(CCC(F)(F)CC3)C2=O)ccc1-c1ccccc1", "test value": "< 100 nM"}
{"smiles string": "O=C(CN1C(=O)NC2(CCC(F)(F)CC2)C1=O)c1ccc(-c2ccccc2CN2CCCC2)cc1", "test value": "< 500 nM"}

Continue with the next compound.
Fill blank: measured IC50 of the compound Cn1c(C(=O)CN2C(=O)NC3(CCC(F)(F)CC3)C2=O)nc(C2CC2)c1-c1ccccc1 is ____.
< 100 nM

---

# maps each entry to its IC50
molecular target: human TRPM8 (Homo sapiens, UniProt Q7Z2W7); test: Menthol-induced Ca2+ influx in HEK293 cells stably expressing human TRPM8; settings: 30 microM menthol-induced Ca2+ influx, read-out: IC50 against TRPM8

Some solved cases for reference:
{"smiles string": "Nc1cccnc1-c1ccc(C(=O)CN2C(=O)NC3(CCC(F)(F)CC3)C2=O)cc1", "IC50": "< 500 nM"}
{"smiles string": "N#Cc1cccc(-c2ccc(C(=O)CN3C(=O)NC4(CCCCC4)C3=O)cc2)n1", "IC50": "< 100 nM"}

// next entry
# lookup: IC50 of Cc1nc(C(=O)CN2C(=O)NC3(CCC(F)(F)CC3)C2=O)sc1-c1cncc(C#N)c1
< 500 nM

---

The reader will find reported IC50 values listed item by item below.
target: UniProt Q7Z2W7; assay: Menthol-induced Ca2+ influx in HEK293 cells stably expressing human TRPM8; settings: 30 microM menthol-induced Ca2+ influx, read-out: IC50 against TRPM8

{"compound": "O=C(CN1C(=O)NC2(CCC(F)(F)CC2)C1=O)c1ccc(-c2nccnc2OCCO)cc1 [Example 6-54]", "test system": "UniProt Q7Z2W7", "test value": "< 100 nM"}
{"compound": "Cc1ccccc1-c1c(C)cc(C(=O)CN2C(=O)NC3(CCC(F)(F)CC3)C2=O)n1C [Example 16-19]", "test system": "UniProt Q7Z2W7", "test value": "< 100 nM"}
{"compound": "Cc1ccncc1-c1sc(C(=O)CN2C(=O)NC3(CCCCC3)C2=O)cc1C [Example 14-3]", "test system": "UniProt Q7Z2W7", "test value": "< 100 nM"}
{"compound": "N#Cc1cccnc1-c1ccc(C(=O)CN2C(=O)NC3(CCC(F)(F)CC3)C2=O)cc1 [Example 6-87]", "test system": "UniProt Q7Z2W7", "test value": "< 100 nM"}
{"compound": "Cc1ccc2nc(C)n(-c3ccc(C(=O)CN4C(=O)NC5(CCC(F)(F)CC5)C4=O)cc3)c2n1 [Example 5-27]", "test system": "UniProt Q7Z2W7", "test value": "< 10 nM"}

Find IC50 (UniProt Q7Z2W7) for the entry Cc1ccccc1-c1c(C)sc(C(=O)CN2C(=O)NC3(CCC(F)(F)CC3)C2=O)c1C [Example 15-9]
< 500 nM

Cc1nc(C(=O)CN2C(=O)NC3(CCC(F)(F)CC3)C2=O)n(C)c1-c1cccnc1 [Example 17-12] ?
< 500 nM

Entry O=C(CN1C(=O)NC2(CCC(F)(F)CC2)C1=O)c1ccc(-n2ccc3cccnc32)cc1 [Example 19-17] please
< 100 nM

Queued: O=C(CN1C(=O)NC2(CCC(F)(F)CC2)C1=O)c1ccc(-c2cccnc2CO)nc1 [Example 9-25]
< 100 nM

Cool, now Cc1cc(C(=O)CN2C(=O)NC3(CCCCC3)C2=O)cnc1-c1ccccc1 [Example 11-2]
< 100 nM

What do you get for Cc1ccccc1-c1ccc(C(=O)CN2C(=O)NC3(CCCCC3)C2=O)cc1 [Example 13-4] ?
< 100 nM

What do we get for Nc1ncccc1-c1ccc(C(=O)CN2C(=O)NC3(CCCCC3)C2=O)cc1 [Example 7-13] ?
< 100 nM

---

biological target: human TRPM8 (Homo sapiens, UniProt Q7Z2W7); experiment: Menthol-induced Ca2+ influx in HEK293 cells stably expressing human TRPM8; conditions: 30 microM menthol-induced Ca2+ influx, read-out: IC50 against TRPM8
pIC50: −log10 of the molar value.
measured quantity: pIC50

{"smiles string": "N#Cc1cncnc1-c1ccc(C(=O)CN2C(=O)NC3(CCC(F)(F)CC3)C2=O)cc1", "test value": "> 6.30"}
{"smiles string": "Cc1nc2cccnc2n1-c1ccc(C(=O)CN2CC3(CCC(F)(F)CC3)OC2=O)cc1", "test value": "> 6.30"}
{"smiles string": "O=C(CN1C(=O)NC2(CCCCC2)C1=O)c1ccc(-c2ncccc2CO)cc1", "test value": "> 7.00"}

Next compound, pIC50 to be filled in.
What does the data say about its pIC50? Entry: Cc1cc(C(=O)CN2C(=O)NC3(CCC(F)(F)CC3)C2=O)sc1-c1cccnc1
> 7.00
